procedure_details: Solubility of clofazimine in various solvents
assay_context: solvent, 25 °C, oil or lipid, thermodynamic from solid, Solubility, Soybean oil
metric: solubility at 24 h (µg/mL)
Write the value in µg/mL as a bare number.

Reported solubility at 24 h for CC(C)/N=c1\cc2n(-c3ccc(Cl)cc3)c3ccccc3nc-2cc1Nc1ccc(Cl)cc1 [Clofazimine] : what is it?
5100

###

procedure_details: Solubility of clofazimine in various solvents
assay_context: solvent, 25 °C, oil or lipid, thermodynamic from solid, Solubility, Coconut oil
metric: solubility at 24 h (µg/mL)
Write the value in µg/mL as a bare number.

Reported solubility at 24 h for CC(C)/N=c1\cc2n(-c3ccc(Cl)cc3)c3ccccc3nc-2cc1Nc1ccc(Cl)cc1 [Clofazimine] : what is it?
5100

Numbers sourced from patent US20230128252A1.
